target: Fatty acid synthase (Homo sapiens); test: inhibition of human FAS-TE enzyme activity – biochemical, kinetic fluorescence intensity, dose response (AID 624326); assay type: functional;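 further: rate of fluorescence rise from hydrolysis of a fluorogenic O-methyl fluorescein ester substrate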
Sequence (P49327 whole entry): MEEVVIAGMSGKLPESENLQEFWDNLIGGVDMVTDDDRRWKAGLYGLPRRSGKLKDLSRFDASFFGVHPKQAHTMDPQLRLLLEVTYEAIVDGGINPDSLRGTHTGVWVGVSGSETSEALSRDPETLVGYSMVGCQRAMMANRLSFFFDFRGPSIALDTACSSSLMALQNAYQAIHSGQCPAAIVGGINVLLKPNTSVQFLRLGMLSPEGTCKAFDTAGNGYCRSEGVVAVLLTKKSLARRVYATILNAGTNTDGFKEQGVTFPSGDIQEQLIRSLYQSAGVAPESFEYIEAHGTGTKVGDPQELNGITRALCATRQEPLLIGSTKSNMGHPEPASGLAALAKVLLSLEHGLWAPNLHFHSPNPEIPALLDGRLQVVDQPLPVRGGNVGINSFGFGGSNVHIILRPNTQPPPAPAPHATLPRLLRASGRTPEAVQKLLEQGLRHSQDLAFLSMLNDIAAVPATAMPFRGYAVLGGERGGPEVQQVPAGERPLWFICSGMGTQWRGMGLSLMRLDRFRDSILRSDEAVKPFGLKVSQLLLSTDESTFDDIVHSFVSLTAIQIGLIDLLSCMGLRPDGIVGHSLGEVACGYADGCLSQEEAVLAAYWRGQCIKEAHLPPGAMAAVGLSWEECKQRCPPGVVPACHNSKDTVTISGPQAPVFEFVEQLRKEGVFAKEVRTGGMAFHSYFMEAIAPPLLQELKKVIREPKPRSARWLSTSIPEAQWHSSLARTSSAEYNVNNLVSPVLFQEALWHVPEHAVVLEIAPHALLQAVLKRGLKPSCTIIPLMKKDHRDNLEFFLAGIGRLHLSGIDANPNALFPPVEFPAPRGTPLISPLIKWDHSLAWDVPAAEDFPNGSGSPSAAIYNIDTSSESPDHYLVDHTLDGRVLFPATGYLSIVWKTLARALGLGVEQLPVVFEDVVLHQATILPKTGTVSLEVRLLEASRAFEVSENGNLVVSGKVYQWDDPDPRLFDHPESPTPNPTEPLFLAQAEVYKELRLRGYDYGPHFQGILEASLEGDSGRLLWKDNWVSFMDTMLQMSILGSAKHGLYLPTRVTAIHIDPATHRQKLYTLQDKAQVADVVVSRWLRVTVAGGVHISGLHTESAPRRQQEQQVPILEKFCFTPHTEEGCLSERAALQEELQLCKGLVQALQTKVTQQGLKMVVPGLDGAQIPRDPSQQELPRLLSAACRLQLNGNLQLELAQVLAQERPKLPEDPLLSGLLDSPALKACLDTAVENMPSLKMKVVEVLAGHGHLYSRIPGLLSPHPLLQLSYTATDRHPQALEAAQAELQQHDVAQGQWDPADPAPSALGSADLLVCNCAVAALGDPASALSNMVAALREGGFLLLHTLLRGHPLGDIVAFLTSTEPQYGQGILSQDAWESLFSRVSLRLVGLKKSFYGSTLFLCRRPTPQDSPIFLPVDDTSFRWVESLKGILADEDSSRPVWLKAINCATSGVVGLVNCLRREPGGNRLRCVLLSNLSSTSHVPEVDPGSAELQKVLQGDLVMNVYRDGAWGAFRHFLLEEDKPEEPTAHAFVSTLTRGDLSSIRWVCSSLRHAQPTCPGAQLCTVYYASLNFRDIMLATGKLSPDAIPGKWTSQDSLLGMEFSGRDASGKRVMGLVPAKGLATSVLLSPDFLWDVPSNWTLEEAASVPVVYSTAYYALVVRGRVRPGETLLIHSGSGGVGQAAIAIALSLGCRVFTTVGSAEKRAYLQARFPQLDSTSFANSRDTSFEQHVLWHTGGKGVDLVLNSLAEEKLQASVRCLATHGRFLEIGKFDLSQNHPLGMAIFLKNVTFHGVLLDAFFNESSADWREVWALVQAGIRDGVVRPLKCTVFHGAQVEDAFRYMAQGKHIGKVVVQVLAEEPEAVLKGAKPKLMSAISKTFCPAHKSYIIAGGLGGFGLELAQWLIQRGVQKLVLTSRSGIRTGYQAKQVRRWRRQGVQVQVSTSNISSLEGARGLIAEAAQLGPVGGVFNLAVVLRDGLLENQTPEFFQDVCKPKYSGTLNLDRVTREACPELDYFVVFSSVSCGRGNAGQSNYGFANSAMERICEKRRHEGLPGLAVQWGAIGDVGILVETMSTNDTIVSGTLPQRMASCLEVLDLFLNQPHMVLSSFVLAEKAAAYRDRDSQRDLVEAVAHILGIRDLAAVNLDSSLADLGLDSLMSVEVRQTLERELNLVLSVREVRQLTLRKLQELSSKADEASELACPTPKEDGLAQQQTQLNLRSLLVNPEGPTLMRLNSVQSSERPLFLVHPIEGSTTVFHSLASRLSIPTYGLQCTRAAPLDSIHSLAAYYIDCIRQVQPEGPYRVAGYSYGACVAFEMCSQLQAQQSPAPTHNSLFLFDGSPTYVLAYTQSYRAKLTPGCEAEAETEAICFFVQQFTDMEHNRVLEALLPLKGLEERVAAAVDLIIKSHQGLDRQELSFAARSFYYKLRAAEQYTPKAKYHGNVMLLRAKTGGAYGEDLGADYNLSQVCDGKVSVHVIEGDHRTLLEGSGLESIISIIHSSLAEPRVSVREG
Calls of active or inactive are those of the source. No stated cut-off is given here; in the data, active = IC50 of 20 µM or less and inactive = more.
IC50 values, listed per item
test-readout: IC50

* COc1ccc([N+](=O)[O-])cc1NC(=O)C1(c2ccccc2)CCOCC1 | 16.5 µM (active)
* COC(=O)c1cc(C(=O)NCc2ccc3c(c2)OCO3)cc([N+](=O)[O-])c1 | 11.7 µM (active)
* Cc1cc(=O)oc2cc(OCC(=O)N3CCN(C(C)c4ccccc4)CC3)c(Cl)cc12 (configuration not stated) | 8.55 µM (active)
* CCn1cc([N+](=O)[O-])c(C(=O)N2N=C(c3ccccc3)CC2c2ccc([N+](=O)[O-])cc2)n1 (configuration not stated) | 13.2 µM (active)
* Cc1ccc(S(=O)(=O)c2nnn3c2nc(N2CCC(C(N)=O)CC2)c2ccccc23)cc1C | 8.84 µM (active)
* CNS(=O)(=O)c1ccc2c(c1)C(=O)c1cc(S(=O)(=O)NC)ccc1CC2 | 0.865 µM (active)
* CC(NC(=O)C(C(=O)c1cccc([N+](=O)[O-])c1)n1cc(Cl)ccc1=O)c1ccccc1 (configuration not stated) | 7.89 µM (active)
